The reader will find reported IC50 values listed item by item below.
tested on: MES SA DX; assay: Cytotoxicity assay (72 hour killing assay, CellTiter-Glo), MES SA DX; format: cell-based, human; details: Homo sapiens, MES-SA, 72 h, read-out: Cancer cell lines IC50 (nM) MES SA DX

GIVEN_SMILES: COC(=O)C[C@@H]1C[C@@]2(CO2)[C@H](OC(C)=O)[C@@H](/C=C/C(C)=C/C[C@@H]2O[C@H](C)[C@H](NC(=O)/C=C\[C@H](C)OC(C)=O)C[C@@H]2C)O1
IC50: 6.73 nM
//
GIVEN_SMILES: CC(=O)O[C@@H](C)/C=C\C(=O)N[C@@H]1C[C@H](C)[C@H](C/C=C(C)/C=C/[C@H]2O[C@H](CC(=O)O)C[C@@]3(CO3)[C@@H]2O)O[C@@H]1C
IC50: > 400 nM
//
GIVEN_SMILES: COC(=O)C[C@@H]1C[C@@]2(CO2)[C@H](O)[C@@H](/C=C/C(C)=C/C[C@@H]2O[C@H](C)[C@H](NC(=O)/C=C\[C@H](C)OC(=O)N3CCOCC3)C[C@H]2C)O1
IC50: > 2500 nM
//
GIVEN_SMILES: COC(=O)C[C@@H]1C[C@@]2(CO2)[C@H](O)[C@@H](/C=C/C(C)=C/C[C@@H]2O[C@H](C)[C@H](NC(=O)/C=C\[C@H](C)OC(=O)N3CCCCC3)C[C@H]2C)O1
IC50: > 2500 nM
//
GIVEN_SMILES: COC(=O)C[C@@H]1CC2(CC2)[C@H](O)[C@@H](/C=C/C(C)=C/C[C@@H]2O[C@H](C)[C@H](NC(=O)/C=C\[C@H](C)OC(C)=O)C[C@@H]2C)O1
IC50: > 2500 nM
//
GIVEN_SMILES: COC(=O)C[C@@H]1C[C@@]2(CO2)[C@H](O)[C@@H](/C=C/C(C)=C/C[C@@H]2O[C@H](C)[C@H](NC(=O)/C=C\[C@H](C)OC(=O)N3CCOCC3)C[C@@H]2C)O1
IC50: 3.71 nM
//
GIVEN_SMILES: CCOC(=O)CCNC(=O)C[C@@H]1C[C@@]2(CO2)[C@H](O)[C@@H](/C=C/C(C)=C/C[C@@H]2O[C@H](C)[C@H](NC(=O)/C=C\[C@H](C)OC(C)=O)C[C@@H]2C)O1
IC50: 261 nM
//
GIVEN_SMILES: COC(=O)C[C@@H]1C[C@@]2(CO2)[C@H](O)[C@@H](/C=C/C(C)=C\C[C@@H]2O[C@H](C)[C@H](NC(=O)/C=C\[C@H](C)OC(C)=O)C=C2C)O1
IC50: > 1000 nM
//
GIVEN_SMILES: COC(=O)C[C@@H]1C[C@@]2(CO2)[C@H](O)[C@@H](/C=C/C(C)=C/C[C@@H]2O[C@H](C)[C@H](NC(=O)/C=C\[C@H](C)OC(C)=O)C=C2C)O1
IC50: > 1000 nM
//
GIVEN_SMILES: COC(=O)C[C@@H]1C[C@@]2(CO2)[C@H](O)[C@@H](/C=C/C(C)=C/C[C@@H]2O[C@H](C)[C@H](NC(=O)/C=C\[C@H](C)OC(C)=O)C[C@H]2C)O1
IC50: > 1000 nM
